Cited source for all entries: patent US11753411B2

# PROCEDURE_DETAILS: Hepatocyte stability
# Type: in vitro ADME, human
# ASSAY_CONTEXT: human; Table 3 of Example 15: 1 μM test compound, 0.5 million cells/mL hepatocytes, 37° C.
MEASURED_METRIC: half-life at 1 μM

input: Specify reported half-life at 1 μM for the compound shown: CNc1cc(Nc2cc(F)cc3c2OCCO3)nc2c(C(=O)N[C@@H]3C[C@@H]3F)cnn12 [drawing 294, reference compound]
output: < 1.67 h

input: Specify reported half-life at 1 μM for the compound shown: CNc1cc(Nc2cc(F)cc3c2OCCO3)nc2c(NC(=O)N[C@@H]3C[C@@H]3F)cnn12 [drawing 293]
output: > 6 h

----------
Recorded Cmax for the following molecules
# PROCEDURE_DETAILS: Rat pharmacokinetics (PK)
# Type: in vivo
# ASSAY_CONTEXT: rat, plasma, IV group and PO group, route of the Cmax not given, urea versus corresponding amide, read-out: Cmax
Write it as a number; the unit ng/mL goes unstated.

Check out these entries, answers already filled in.
| MOLECULE | Cmax / ng/mL |
| --- | --- |
| CNc1cc(Nc2cccc3c2OCCO3)nc2c(C(=O)N[C@@H]3C[C@@H]3F)cnn12 [reference compound] | 400 |
| CNc1cc(Nc2cccc3c2OCCO3)nc2c(NC(=O)N[C@@H]3C[C@@H]3F)cnn12 [drawing 285] | 1690 |
| CNC(=O)c1cnn2c(NC)cc(Nc3cc(C)cc(C)c3)nc12 [reference compound] | 200 |
| CNc1cc(Nc2cccc3c2OCCO3)nc2c(C(=O)NC3CC3)cnn12 [drawing 290, reference compound] | 400 |
| CNC(=O)Nc1cnn2c(NC)cc(Nc3cc(C)cc(C)c3)nc12 [drawing 291] | 915 |

// below: Cmax requested for another molecule
input: Specify reported Cmax for the molecule shown: CNc1cc(Nc2cccc3c2OCCO3)nc2c(C(=O)NC3CCC3)cnn12 [reference compound]
output: 1900

----------
Recorded half-life for the following compounds
# PROCEDURE_DETAILS: Human liver microsome stability assay
# Format: in vitro ADME
# ASSAY_CONTEXT: 0.5 mg/mL human liver microsomes, 37° C., pH 7.4; urea versus corresponding amide

| COMPOUND | RESULT |
| --- | --- |
| CNc1cc(Nc2cc(F)cc3c2OCCO3)nc2c(C(=O)N[C@@H]3C[C@@H]3F)cnn12 [drawing 280, reference compound] | 1 h |
| CNc1cc(Nc2cccc3c2OCCO3)nc2c(C(=O)NC3CC3)cnn12 [drawing 278, reference compound] | 0.317 h |
| CNc1cc(Nc2cc(F)cc3c2OCCO3)nc2c(NC(=O)N[C@@H]3C[C@@H]3F)cnn12 [drawing 279] | > 2 h |

input: Specify reported half-life for the compound shown: CNC(=O)Nc1cnn2c(NC)cc(Nc3cc(F)cc4c3OCCO4)nc12 [drawing 283]
output: > 2 h

input: Specify reported half-life for the compound shown: CNc1cc(Nc2cccc3c2OCCO3)nc2c(NC(=O)NC3CC3)cnn12 [drawing 277]
output: > 2 h

input: Specify reported half-life for the compound shown: CNc1cc(Nc2cccc3c2OCCO3)nc2c(NC(=O)NC3CC(O)C3)cnn12 (centres unmarked) [drawing 281]
output: > 2 h

input: Specify reported half-life for the compound shown: CNC(=O)c1cnn2c(NC)cc(Nc3cc(F)cc4c3OCCO4)nc12 [reference compound]
output: < 0.833 h

input: Specify reported half-life for the compound shown: CNc1cc(Nc2cccc3c2OCCO3)nc2c(C(=O)NC3CC(O)C3)cnn12 (centres unmarked) [reference compound]
output: 0.3 h

----------
Recorded IC50 for the following compounds
# Test system: IFN-a/Jak1 Tyk2
# PROCEDURE_DETAILS: Co-stimulation assay in lysed whole blood: IFNa (JAK1/TYK2) stimulated STAT1 phosphorylation
# Type: cell-based
# ASSAY_CONTEXT: lysed human whole blood; 100 ng/mL IFNa (with 10 ng/mL GM-CSF), 20 minutes; pSTAT by flow cytometry

| COMPOUND | TESTED_SYSTEM | IC50 |
| --- | --- | --- |
| CNc1cc(Nc2c(F)ccc3c2OCCO3)nc2c(NC(=O)NCC#N)cnn12 [Compound 136] | IFN-a/Jak1 Tyk2 | 1 to 10 µM |

// below: IC50 requested for another compound
input: Specify reported IC50 for the compound shown: CNc1cc(Nc2c(F)ccc3c2OCCO3)nc2c(NC(=O)NCC#N)cnn12 [Compound 174]
output: ≥ 10 µM
